Test: Inhibition of DENV2 N-terminally hexa-His tagged NS2B (49 to 92 residues) -NS3 (1 to 184 residues) protease using Ac-TTSTRR-pNA as substrate preincubated for 10 mins followed by substrate addition and measured after 120 mins by HTS assay
Set-up: species or system dengue virus type 2
Result Type: pIC50
Give bare numbers, as −log10 of the molar value.

# get_value(readout='pIC50', item= c1ccc(-c2ccc(Nc3nnc(Nc4ccc(C5=NCCN5)cc4)c4ccccc34)cc2)cc1 )
4.65

* * *

Test: Inhibition of DENV2 NS2B-G4-S-G4-NS3 protease using Bz-nKRR-AMC as substrate preincubated for 30 mins followed by substrate addition by fluorescence microplate reader assay
Parameters: species or system dengue virus type 2
Please provide measured pIC50 for the entries that follow.
One number for each entry, as −log10 of the molar value.

Below are worked cases with known answers.
Smiles Repr: Cc1[nH]c2ccccc2c1C(=O)NCc1ccc(CN2CCCC2)cc1
pIC50: 3.52

Smiles Repr: N#Cc1ccc(OC(=O)c2ccc(NC(=N)N)cc2)cc1
pIC50: 4.42

# get_value(readout='pIC50', item= N=C(N)Nc1ccc(OC(=O)c2ccc(NC(=N)N)cc2)cc1 )
5.11
